test_readout: melting point

Recorded melting point, per entry:
Cc1oc(Cc2ccc3ccccc3c2)c(C(=O)c2cc(C(C)C)c(OS(=O)(=O)c3ccc(C(=O)O)c(O)c3)c(C(C)C)c2)c1C [Example 8] ... 130 to 135 °C
Cc1oc(Cc2ccccc2)c(C(=O)c2cc(C(C)C)c(OS(=O)(=O)c3ccc(C(=O)O)c(O)c3)c(C(C)C)c2)c1C [Example 5] ... 142 to 143 °C
Cc1cc(C(=O)c2c(Cc3ccccc3)oc(C)c2C)cc(-c2ccccc2)c1OS(=O)(=O)c1ccc(C(=O)[O-])c(O)c1.[Na+] [Example 7] ... 187 to 190 °C

input: Give the measured melting point for Cc1oc(Cc2ccccc2)c(C(=O)c2ccc(OS(=O)(=O)c3ccc(C(=O)O)c(O)c3)c(C3CCCC3)c2)c1C [Example 17]
output: 80 to 85 °C

input: Give the measured melting point for Cc1oc(Cc2ccccc2Br)c(C(=O)c2ccc(OS(=O)(=O)c3ccc(C(=O)O)c(O)c3)c(C3CCCC3)c2)c1C [Example 21]
output: 72 to 82 °C

input: Give the measured melting point for Cc1sc(Cc2ccc(Br)cc2)c(C(=O)c2ccc(OS(=O)(=O)c3ccc(C(=O)O)c(O)c3)c(C3CCCC3)c2)c1C [Example 20]
output: 165 to 170 °C
